Target: human αVβ6 (Homo sapiens, UniProt P06756+P18564)
Sequence (P06756 31-992 limits assumed): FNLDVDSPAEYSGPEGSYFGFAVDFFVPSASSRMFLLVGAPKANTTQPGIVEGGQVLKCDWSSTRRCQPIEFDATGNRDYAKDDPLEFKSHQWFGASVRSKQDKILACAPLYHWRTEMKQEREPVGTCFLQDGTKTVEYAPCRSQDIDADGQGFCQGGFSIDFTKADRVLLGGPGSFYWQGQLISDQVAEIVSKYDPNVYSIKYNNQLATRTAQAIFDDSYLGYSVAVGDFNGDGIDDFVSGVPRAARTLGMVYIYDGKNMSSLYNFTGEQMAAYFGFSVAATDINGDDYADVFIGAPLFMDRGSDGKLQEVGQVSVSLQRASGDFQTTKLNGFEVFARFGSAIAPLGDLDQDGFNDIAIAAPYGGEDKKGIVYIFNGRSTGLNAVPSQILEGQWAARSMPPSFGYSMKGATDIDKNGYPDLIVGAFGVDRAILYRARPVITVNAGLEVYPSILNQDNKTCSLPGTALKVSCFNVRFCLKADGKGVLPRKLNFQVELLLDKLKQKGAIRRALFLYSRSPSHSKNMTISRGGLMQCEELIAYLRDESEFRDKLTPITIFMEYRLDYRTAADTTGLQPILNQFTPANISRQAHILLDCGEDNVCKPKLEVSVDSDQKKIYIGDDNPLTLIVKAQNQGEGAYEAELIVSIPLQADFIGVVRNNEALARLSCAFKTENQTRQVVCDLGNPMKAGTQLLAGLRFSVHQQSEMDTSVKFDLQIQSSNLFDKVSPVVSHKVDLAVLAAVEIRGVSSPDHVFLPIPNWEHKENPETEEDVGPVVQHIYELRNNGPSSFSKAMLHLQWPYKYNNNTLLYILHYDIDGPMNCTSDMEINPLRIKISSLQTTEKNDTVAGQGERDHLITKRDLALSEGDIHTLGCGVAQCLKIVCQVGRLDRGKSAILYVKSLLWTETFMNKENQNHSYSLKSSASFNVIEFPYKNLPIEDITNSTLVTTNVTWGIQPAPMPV
Sequence (P18564 22-707 limits assumed): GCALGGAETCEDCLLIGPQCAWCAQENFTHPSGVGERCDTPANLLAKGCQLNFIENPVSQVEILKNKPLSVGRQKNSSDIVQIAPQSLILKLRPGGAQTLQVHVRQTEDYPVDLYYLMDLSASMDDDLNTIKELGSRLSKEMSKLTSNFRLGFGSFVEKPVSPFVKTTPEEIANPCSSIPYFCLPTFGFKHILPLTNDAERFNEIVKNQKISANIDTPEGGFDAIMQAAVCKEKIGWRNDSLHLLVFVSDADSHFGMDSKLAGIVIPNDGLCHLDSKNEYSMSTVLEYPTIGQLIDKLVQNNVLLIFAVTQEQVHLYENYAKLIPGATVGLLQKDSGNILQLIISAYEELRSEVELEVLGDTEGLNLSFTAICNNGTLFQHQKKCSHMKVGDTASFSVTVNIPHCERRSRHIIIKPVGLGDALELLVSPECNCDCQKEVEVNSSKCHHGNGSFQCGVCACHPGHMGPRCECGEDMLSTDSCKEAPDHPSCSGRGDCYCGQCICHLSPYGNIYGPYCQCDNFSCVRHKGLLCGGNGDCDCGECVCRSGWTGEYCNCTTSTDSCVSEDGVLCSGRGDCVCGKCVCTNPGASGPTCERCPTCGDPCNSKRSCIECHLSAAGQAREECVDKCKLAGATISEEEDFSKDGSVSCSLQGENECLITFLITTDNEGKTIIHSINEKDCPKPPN
Test: human αVβ6 HTRF binding assay
Details: recombinant human αVβ6 integrin, FITC-conjugated fibronectin
From the text: All binding assays used the HTRF (homogeneous time resolved fluorescence) technology from Cisbio International, therefore all assays are described as HTRF binding assays. The assay results for the Examples are listed above together with the characterization data. The HTRF binding assays are established for the following integrins: human αVβ6, human αVβ1, human αVβ3, human αVβ5, and human αVβ8. […]
pIC50: −log10 of the molar value.
Assay endpoint: pIC50

>  <Molecule>
O=C(O)CC(c1cc(Cl)cc(Cl)c1)n1ncc2cc(CCc3ccc4c(n3)NCCC4)ccc21 (stereo not drawn)

>  <Obs value>
6.68

$$$$

1 = O=C(N[C@@H](Cn1cc2cc(OCc3ccc4c(n3)NCCC4)ccc2n1)C(=O)O)OCc1ccccc1
2 = Cc1ncc([C@H](CC(=O)O)n2ncc3cc(OCCc4ccc5c(n4)NCCC5)ccc32)cn1
Q: Kindly identify which of 1 and 2 has the larger recorded pIC50 value. Refer to your chosen item by its label in the answer.
Result: 2
(2: 7.33, 1: 6.80)

* * *

target: human αVβ6 (Homo sapiens, UniProt P06756+P18564); test: human αVβ6 HTRF binding assay; conditions: recombinant human αVβ6 integrin, FITC-conjugated fibronectin
pIC50: −log10 of the molar value. Structures can show the parent of a compound that is named as a salt.
Assay endpoint: pIC50

Guide cases for pIC50, answers given:
>  <Compound>
O=C(O)CC(c1ccc2nccnc2c1)n1ncc2cc(OCCc3ccc4c(n3)NCCC4)ccc21 (stereo not shown) [Example 80, TFA]

>  <Assay endpoint>
pIC50

>  <Obs value>
7.89

$$$$
>  <Compound>
O=C(O)C[C@H](c1cncc(C2OCCO2)c1)n1ncc2cc(OCCc3ccc4c(n3)NCCC4)ccc21 [Example 138]

>  <Assay endpoint>
pIC50

>  <Obs value>
7.37

$$$$
>  <Compound>
O=C(O)CC(c1cc(Cl)cc(Cl)c1)n1ncc2cc(CCCc3ccc4c(n3)NCCC4)ccc21 (stereo not shown) [Example 21]

>  <Assay endpoint>
pIC50

>  <Obs value>
7.36

$$$$
>  <Compound>
O=C(O)C(CCc1ccccc1)Cn1ncc2cc(OCCc3ccc4c(n3)NCCC4)ccc21 (stereo not shown) [Example 73]

>  <Assay endpoint>
pIC50

>  <Obs value>
5.74

$$$$
>  <Compound>
Cn1cnc2ncc(C(CC(=O)O)n3ncc4cc(OCCc5ccc6c(n5)NCCC6)ccc43)cc21 (stereo not shown) [Example 140]

>  <Assay endpoint>
pIC50

>  <Obs value>
8.24

$$$$
>  <Compound>
COc1ccc([C@H](CC(=O)O)n2cc3cc(CCCc4ccc5c(n4)NCCC5)ccc3n2)cn1 [Example 67]

>  <Assay endpoint>
pIC50

>  <Obs value>
6.13

$$$$
>  <Compound>
CC(C)(O)c1cncc(C(CC(=O)O)n2ncc3cc(OCCc4ccc5c(n4)NCCC5)ccc32)c1 (stereo not shown) [Example 144]

>  <Assay endpoint>
pIC50

>  <Obs value>
8.30

$$$$

1 = O=C(O)CC(c1cncc(C(=O)N2CCOCC2)c1)n1ncc2cc(OCCc3ccc4c(n3)NCCC4)ccc21 (stereo not shown) [Example 152]
2 = CC(C)(O)c1cncc([C@H](CC(=O)O)n2ncc3cc(OCCc4ccc5c(n4)NCCC5)ccc32)c1 [Example 146]
3 = O=C(O)CC(c1ccc(Oc2ccccc2)cc1)n1ncc2cc(OCCc3ccc4c(n3)NCCC4)ccc21 (stereo not shown) [Example 57, TFA]
Q: Hi! Can you put these in order of pIC50, lowest number first? Present the labels in the sequence the task asks for.
Result: 1, 3, 2

* * *

target: human αVβ6 (Homo sapiens, UniProt P06756+P18564); assay: human αVβ6 HTRF binding assay; conditions: recombinant human αVβ6 integrin, FITC-conjugated fibronectin
pIC50: −log10 of the molar value. Counter-ions that a name gives are not always drawn.
Assay endpoint: pIC50

Guide cases for pIC50, answers given:
>  <Compound>
O=C(O)CC(c1ccccn1)n1ncc2cc(OCCc3ccc4c(n3)NCCC4)ccc21 (centres unmarked) [Example 61, TFA]

>  <Assay endpoint>
pIC50

>  <Obs value>
7.10

$$$$
>  <Compound>
COc1cncc(C(CC(=O)O)n2ncc3cc(OCCc4ccc5c(n4)NCCC5)ccc32)n1 (centres unmarked)

>  <Assay endpoint>
pIC50

>  <Obs value>
5.64

$$$$
>  <Compound>
NCc1cncc(C(CC(=O)O)n2ncc3cc(OCCc4ccc5c(n4)NCCC5)ccc32)c1 (centres unmarked)

>  <Assay endpoint>
pIC50

>  <Obs value>
7.52

$$$$
>  <Compound>
O=C(O)CC(c1cnc2nccnc2c1)n1ncc2cc(OCCc3ccc4c(n3)NCCC4)ccc21 (centres unmarked) [Example 95, TFA]

>  <Assay endpoint>
pIC50

>  <Obs value>
7.52

$$$$
>  <Compound>
O=C(O)C[C@@H](c1cnc2ccccc2c1)n1cc2ccc(CCCc3ccc4c(n3)NCCC4)cc2n1

>  <Assay endpoint>
pIC50

>  <Obs value>
8.89

$$$$
>  <Compound>
O=C(O)CC(c1cnc2[nH]ncc2c1)n1ncc2cc(OCCc3ccc4c(n3)NCCC4)ccc21 (centres unmarked) [Example 106, TFA]

>  <Assay endpoint>
pIC50

>  <Obs value>
7.64

$$$$
>  <Compound>
O=C(O)CC(c1ccn2cnnc2c1)n1ncc2cc(OCCc3ccc4c(n3)NCCC4)ccc21 (centres unmarked)

>  <Assay endpoint>
pIC50

>  <Obs value>
7.24

$$$$
>  <Compound>
COc1ccc(C(CC(=O)O)n2ncc3c(OCCc4ccc5c(n4)NCCC5)cccc32)cn1 (centres unmarked)

>  <Assay endpoint>
pIC50

>  <Obs value>
5.64

$$$$

1 = CN(C)Cc1cccc(C(CC(=O)O)n2ncc3cc(CCc4ccc5c(n4)NCCC5)ccc32)c1 (centres unmarked)
2 = CCCC(CC(=O)O)n1ncc2cc(OCCc3ccc4c(n3)NCCC4)ccc21 (centres unmarked)
3 = Cn1ncc2cc(C(CC(=O)O)n3ncc4cc(OCCc5ccc6c(n5)NCCC6)ccc43)cnc21 (centres unmarked) [Example 117, TFA]
4 = O=C(O)CC(c1cnc2ccccc2n1)n1ncc2cc(CCCc3ccc4c(n3)NCCC4)ccc21 (centres unmarked)
Q: Rank the 4 compounds: largest pIC50 first, smallest last. Present the labels in the sequence the task asks for.
Result: 3, 1, 4, 2
(3: 7.72, 1: 6.92, 4: 6.72, 2: 6.14)

I = O=C(O)CC(c1cnc(N2CCOCC2)nc1)n1ncc2cc(OCCc3ccc4c(n3)NCCC4)ccc21 (centres unmarked) [Example 111, TFA]
II = COc1ccc(C(CC(=O)O)n2ncc3cc(OCCc4ccc5c(n4)NCCC5)ccc32)cc1F (centres unmarked) [Example 44, TFA]
III = COC(=O)NCc1cncc([C@@H](CC(=O)O)n2ncc3cc(OCCc4ccc5c(n4)NCCC5)ccc32)c1
Q: Rank the 3 compounds: largest pIC50 first, smallest last. Present the labels in the sequence the task asks for.
Result: II, I, III

a = Cn1ncc2ncc(C(CC(=O)O)n3ncc4cc(OCCc5ccc6c(n5)NCCC6)ccc43)cc21 (centres unmarked)
b = COc1ncc([C@@H](CC(=O)O)n2ncc3cc(OCCc4ccc5c(n4)NCCC5)ccc32)cn1
Q: Given a and given b , which shows the smaller recorded pIC50? Refer to your chosen item by its label in the answer.
Result: b
(b: 6.21, a: 8.15)

* * *

biological target: human αVβ6 (Homo sapiens, UniProt P06756+P18564); test: human αVβ6 HTRF binding assay; details: recombinant human αVβ6 integrin, FITC-conjugated fibronectin
pIC50: −log10 of the molar value. Counter-ions that a name gives are not always drawn.
Assay endpoint: pIC50

>  <Compound>
COc1ncc(C(CC(=O)O)n2ncc3cc(OCCc4ccc5c(n4)NCCC5)ccc32)cn1 (stereo not drawn) [Example 92, TFA]

>  <Tgt>
human αVβ6 (Homo sapiens, UniProt P06756+P18564)

>  <pIC50>
7.51

$$$$

P = CS(=O)(=O)c1cncc([C@H](CC(=O)O)n2ncc3cc(OCCc4ccc5c(n4)NCCC5)ccc32)c1
Q = Cn1cnc2cc(C(CC(=O)O)n3ncc4cc(OCCc5ccc6c(n5)NCCC6)ccc43)cnc21 (stereo not drawn) [Example 126, TFA]
Q: Given P and given Q , which shows the smaller recorded pIC50? Refer to your chosen item by its label in the answer.
Result: Q

* * *

molecular target: human αVβ5 (Homo sapiens, UniProt P06756+P18084); assay: human αVβ5 HTRF binding assay
Sequence (P06756 31-992 limits assumed): as the sequence (P06756 31-992 limits assumed) above
Sequence (P18084 24-719 limits assumed): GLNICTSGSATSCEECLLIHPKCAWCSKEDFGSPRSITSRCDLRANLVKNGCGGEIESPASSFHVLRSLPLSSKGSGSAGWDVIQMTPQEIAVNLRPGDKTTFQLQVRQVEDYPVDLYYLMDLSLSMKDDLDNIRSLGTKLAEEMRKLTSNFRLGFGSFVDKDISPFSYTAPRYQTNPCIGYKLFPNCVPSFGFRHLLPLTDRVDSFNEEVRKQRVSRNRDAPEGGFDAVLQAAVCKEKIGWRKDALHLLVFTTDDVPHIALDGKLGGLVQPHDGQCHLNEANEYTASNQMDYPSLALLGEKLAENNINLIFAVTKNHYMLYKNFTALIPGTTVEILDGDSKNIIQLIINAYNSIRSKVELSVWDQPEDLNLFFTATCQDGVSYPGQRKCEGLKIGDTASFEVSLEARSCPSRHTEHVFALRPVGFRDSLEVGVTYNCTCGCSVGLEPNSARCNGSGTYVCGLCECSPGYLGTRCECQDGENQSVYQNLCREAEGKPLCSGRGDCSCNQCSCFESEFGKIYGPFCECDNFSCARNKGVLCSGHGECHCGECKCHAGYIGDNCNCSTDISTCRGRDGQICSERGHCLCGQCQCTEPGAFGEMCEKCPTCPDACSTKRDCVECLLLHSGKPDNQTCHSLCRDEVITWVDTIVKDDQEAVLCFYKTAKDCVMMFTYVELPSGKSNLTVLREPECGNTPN
Structures can show the parent of a compound that is named as a salt.
Assay endpoint: IC50 (nM)

Guide cases for IC50, answers given:
>  <Molecule>
O=C(O)CC(c1cnc(N2CCC2)nc1)n1ncc2cc(OCCc3ccc4c(n3)NCCC4)ccc21 (stereo not shown) [Example 119, TFA]

>  <IC50 / nM>
0.6

$$$$
>  <Molecule>
O=C(O)CC(c1cnc2ccccc2c1)n1ncc2cc(OCCc3ccc4c(n3)NCCC4)ccc21 (stereo not shown) [Example 48, TFA]

>  <IC50 / nM>
0.54

$$$$

P = O=C(O)CC(c1cnc2c(c1)OCCN2)n1ncc2cc(OCCc3ccc4c(n3)NCCC4)ccc21 (stereo not shown) [Example 97, TFA]
Q = COc1ncc([C@H](CC(=O)O)n2cc3ccc(CCc4ccc5c(n4)NCCC5)cc3n2)cn1
Q: Given P and given Q , which shows the smaller recorded IC50? Refer to your chosen item by its label in the answer.
Result: P
(P: 0.59 nM, Q: 1.1 nM)
